The origin of these recorded values is patent US20240226072A1.

assay: Plasma pharmacokinetics and tissue distribution 2 h after oral cabazitaxel 10 mg/kg with vehicle or 25 mg/kg ritonavir in wild-type, Oatp1a/1b−/−, Oatp1a/1b/2b1−/−, OATP1B1- and OATP1B3-transgenic mice; format: in vivo; settings: male, FVB, mouse, plasma, po, 10 mg/kg, OATP1B1-transgenic mice; vehicle pretreatment; oral 10 mg/kg cabazitaxel
measured_attribute: Cmax
The answer should read as a number with its unit following.

Query string: Using the record for CO[C@H]1C(=O)[C@]2(C)[C@@H](OC)C[C@H]3OC[C@@]3(OC(C)=O)[C@H]2[C@H](OC(=O)c2ccccc2)[C@]2(O)C[C@H](OC(=O)[C@H](O)[C@@H](NC(=O)OC(C)(C)C)c3ccccc3)C(C)=C1C2(C)C [cabazitaxel] , report its Cmax.
Result string: 2730 nM

New cases:
Query string: Using the record for CC(=O)O[C@@]12CO[C@@H]1C[C@H](O)[C@@]1(C)C(=O)[C@H](O)C3=C(C)[C@@H](OC(=O)[C@H](O)[C@@H](NC(=O)OC(C)(C)C)c4ccccc4)C[C@@](O)([C@@H](OC(=O)c4ccccc4)[C@H]21)C3(C)C [docetaxel] , report its Cmax.
Result string: 206 nM
